Each record here notes measured Kd.
Target Or Test System: T1, Ebola virus GP with a C-terminal polyhistidine tag (Sino Biologicals, Catalog #40442-V08B1) (Ebola virus, UniProt P87666 33-650)
T1 construct: also called EbolaGP.his; Ebola virus GP.his
Experiment Summary: SPR 25C, mAb captured
Value expressed in nM; do not type the unit.

H1H17203P (antibody, V domains shown) VH: QVQLVESGGGVVQPGRSLRLSCAASGFTFNNYGMHWVRQAPGMGLEWVAVIWHDGSDKYYADSVKGRFTISRDNSKNTLYLQMNSLRAEDTAVYYCARNWNLFDYWGQGTLVTVSS VL: DIQMTQSPSSLSASVGDRITITCRASQSISTYLHWYQQKPGKAPKLLIYAASTLQSGVPSRFSGSGSGTDFTLTISSLQPEDFATYYCQQSFSTPPINFGQGTKLEIK : 6.04

With those in mind, consider the next binder.
Which Kd value belongs to H1H17223P (antibody, V domains shown) VH: EVQLVESGGGLVQPGGSLRLSCAASGFTFRTYDMHWVRQATGKGLEWVSAIGTAGDTYYPGSVKGRFTISRENAKNSLYLQMNSLRAGDTAVYYCARTIFGVVLTFDYWGQGTLVTVSS VL: DIQMTQSPSSLSASVGDRVTITCRASQSISSSLNWYQQKPGKAPKLLIYAASSLHSGVPSRFSGSGSGTDFTLTISSLQPEDFATYYCQQTYSIPPTTFGQGTKVEIK ?
2.03
